assay: Growth inhibition of human BT474 cells at 10 uM after 72 hrs by cell titer-glo based luminescence assay; parameters: species or system BT-474; conditions: read-out: GI
Returns one of Condition met or Condition not met; Condition met when inhibition at 72 h, 10 µM is >= 10%.

Examples with answers:
| compound | cat |
| --- | --- |
| COc1cc(/C=C/C(=O)NC(CC(C)C)NC(=S)Nc2cccnc2)cc(OC)c1OC (stereo unspecified) | Condition not met |
| COc1cc(/C=C/C(=O)NC(NC(=S)Nc2ccccc2C)C(C)(C)C)cc(OC)c1OC (stereo unspecified) | Condition not met |
| COc1cc(/C=C/C(=O)NC(CC(C)(C)C)NC(=S)Nc2cccnc2)cc(OC)c1OC (stereo unspecified) | Condition met |
| Cc1ccccc1NC(=S)NC(NC(=O)/C=C/c1ccccc1)C1CC1 (stereo unspecified) | Condition not met |

Field: next compound
Assess whether reported inhibition at 72 h, 10 µM for COc1cc(/C=C/C(=O)NC(NC(=S)NC2CCCCC2)C(C)(C)C)cc(OC)c1OC (stereo unspecified) sits at 10% or higher.
Condition met
